test: Shuffled variant libraries: 14CO2 capturing assay in 384-well format; details: decarboxylation activity (carbon dioxide released) compared with unmutated backbone protein SEQ ID NO 133 (DDEC0201)
Below is a list of entries, each paired with its recorded Fold Activity value.
# answer = number (no unit)

134 (protein, Dicamba decarboxylase variant) MAQGKVALEEHFAIPETLQDSAGFVPGDYWKELQHRLLDIQDTRLKLMDAHGIETMILSLAAPAVQAIPDRRKAIEIARRANDMLAEECAKRPDRFLAFAALPLQDPDAATEELQRCVNDLGFVGALVNGFSQEGDGQTPLYYDLPQYRPFWGEVEKLDVPFYLHPRNPLPQDSRIYDGHPWLLGPTWAFAQETAVHALRLMASGLFDEHPRLNIILGHLGEGLPYMMYRIDHRIAWVHEPPRYPAKRRLMDYFNENFHITTSGNFRTQTLIDAILEIGADRILFSTDWPFENIDHAADWFNATSIAEADRVKIGRTNARRLFKLDGA    1.1

Now let's try a different one.
Query string: Check the records and state Fold Activity for 141 (protein, Dicamba decarboxylase variant) MAQGKVALEEHFAIPETLNDSAGFVPGDYWKELQHRLLDIQDTRLKLMDAHGIETMILSLAAPAVQAIPDRRKAIEIARRANDMLAEECAKRPDRFLAFAALPLQDPDAATEELQRCVNDLGFVGALVNGFSQEGDGQTPLYYDLPQYRPFWGEVEKLDVPFYLHPRNPLPQDSRIYDGHPWLLGPTWAFAQETAVHALRLMASGLFDEHPRLNIILGHMGEGLPYMMYRIDHRIAWVHEPPRYPAKRRFMDYFNENFHITTSGNFRTQTLIDAILEIGADRILFSTDWPFENIDHAADWFNATSIAEADRVKIGRTNARRLFKLDLD
Result string: 0.9
